The measured values listed here are drawn from patent US20150087577A1.

Measured IC50 (nM) Ca2+ assay (method 2) accompanies every entry in the list below.
Molecular target: human CXCR4 (human, UniProt P61073 1-352)
Sequence (P61073 whole entry): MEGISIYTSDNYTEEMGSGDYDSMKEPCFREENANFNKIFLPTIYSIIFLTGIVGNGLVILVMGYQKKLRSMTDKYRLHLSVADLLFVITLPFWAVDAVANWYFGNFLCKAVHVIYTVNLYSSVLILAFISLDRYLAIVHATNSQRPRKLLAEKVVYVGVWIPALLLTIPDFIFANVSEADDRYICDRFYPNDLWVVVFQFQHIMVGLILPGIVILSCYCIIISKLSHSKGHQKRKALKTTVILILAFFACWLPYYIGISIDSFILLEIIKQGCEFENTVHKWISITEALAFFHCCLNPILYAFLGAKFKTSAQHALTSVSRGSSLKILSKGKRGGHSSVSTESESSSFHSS
Experiment: cell-based or functional assay
Bridges are numbered along the chain shown (N, C = ends). [ ]: non-standard residue; d: D form. 2Nal = N[C@@H](Cc1ccc2ccccc2c1)C(=O)O; Cit = NC(=O)NCCC[C@H](N)C(=O)O
Give the value in nM but do not write nM after it.

Binder: cyclo(TR[Cit]CRG[dP]RR[2Nal]CYQK[dP]P) (disulfide 4-11; SMILES C[C@@H](O)[C@@H]1NC(=O)[C@@H]2CCCN2C(=O)[C@H]2CCCN2C(=O)[C@H](CCCCN)NC(=O)[C@H](CCC(N)=O)NC(=O)[C@H](Cc2ccc(O)cc2)NC(=O)[C@@H]2CSSC[C@H](NC(=O)[C@H](CCCNC(N)=O)NC(=O)[C@H](CCCNC(=N)N)NC1=O)C(=O)N[C@@H](CCCNC(=N)N)C(=O)NCC(=O)N1CCC[C@@H]1C(=O)N[C@@H](CCCNC(=N)N)C(=O)N[C@@H](CCCNC(=N)N)C(=O)N[C@@H](Cc1ccc3ccccc3c1)C(=O)N2) [Example 67]
Unit symbol: nM
IC50 (nM) Ca2+ assay (method 2): 2.4

# ---- query binder ----
## Task Look at this binder and give its reported IC50 (nM) Ca2+ assay (method 2). cyclo(YR[Cit]CRG[dP]RR[2Nal]CYHK[dP]P) (disulfide 4-11; SMILES N=C(N)NCCC[C@@H]1NC(=O)[C@@H]2CSSC[C@H](NC(=O)[C@H](Cc3ccc4ccccc4c3)NC(=O)[C@H](CCCNC(=N)N)NC(=O)[C@H](CCCNC(=N)N)NC(=O)[C@H]3CCCN3C(=O)CNC1=O)C(=O)N[C@@H](Cc1ccc(O)cc1)C(=O)N[C@@H](Cc1c[nH]cn1)C(=O)N[C@@H](CCCCN)C(=O)N1CCC[C@@H]1C(=O)N1CCC[C@H]1C(=O)N[C@@H](Cc1ccc(O)cc1)C(=O)N[C@@H](CCCNC(=N)N)C(=O)N[C@@H](CCCNC(N)=O)C(=O)N2) [Example 58]
## Result 10.5
